- TEST_TARGET: T1, CX3CR1 on CX3CR1-transfected human embryonic kidney cells (293-CX3CR1 cells) (UniProt P49238 1-355)
- T1 construct: whole, on cells; also called CX3C receptor; CX3CR1-293 cells
- T1 sequence (looked up): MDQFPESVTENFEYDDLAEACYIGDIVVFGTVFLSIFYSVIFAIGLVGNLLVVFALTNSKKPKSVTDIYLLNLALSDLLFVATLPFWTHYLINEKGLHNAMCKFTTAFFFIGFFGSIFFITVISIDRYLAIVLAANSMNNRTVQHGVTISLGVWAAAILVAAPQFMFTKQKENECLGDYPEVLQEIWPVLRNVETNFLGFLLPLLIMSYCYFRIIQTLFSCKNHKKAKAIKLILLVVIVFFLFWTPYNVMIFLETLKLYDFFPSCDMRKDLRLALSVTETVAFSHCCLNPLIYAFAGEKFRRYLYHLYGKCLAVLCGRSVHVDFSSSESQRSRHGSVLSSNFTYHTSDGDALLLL
- EXPERIMENT_NOTES: flow cytometry, G glycoprotein on CX3CR1-293 cells with competitor peptide (84% without)
READOUT_TYPE: percent positive staining of G glycoprotein in the presence of the peptide (%)

# BINDER, UNIT_TAG, EXPERIMENTAL_VALUE
rows = [
    ("TCWACKRIPNK [G glycoprotein peptide ?-1, 11-mer variant of RT33 with a deletion of ILE in the CX3C motif]", "%", 73),
    ("NKKPGKKTTTKP (synthetic 12-mer C-terminal to the CX3C motif) [G glycoprotein peptide RT34]", "%", 74),
    ("TCWAICKRIPNK (synthetic 12-mer with the CX3C motif CWAIC) [G glycoprotein peptide RT33]", "%", 48),
    ("VPCSICSNNPTC (synthetic 12-mer, lacks the CX3C motif) [G glycoprotein peptide RT32]", "%", 72),
]
